B1: RSPH3 (parent)
chain: QRLEEQERRHREEKERRKKQQWEI

Variants of: B1
ASSAY_NAME: protein stability index of a GFP-peptide fusion (GPS, HEK-293T) (PSI 1-6); higher = more stable;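 further: lentivirally expressed fusions sorted by FACS into six bins by GFP to DsRed ratio, PSI derived from sequencing read proportions per bin multiplied by bin number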
CONDITION_NOTES: c terminus: a fixed tail appended
Note to self: values exactly at 4 are True. So protein stability index at or above 4 is True, below is False.

>>> qualitative_label("E4Y")
"False"
>>> qualitative_label("K18A")
"True"
>>> qualitative_label("W22C")
"True"
>>> qualitative_label("R17I")
"False"
>>> qualitative_label("H10P")
"True"
>>> qualitative_label("R11P")
"True"
>>> qualitative_label("E12I")
"False"
>>> qualitative_label("I24V")
"True"
>>> qualitative_label("E23P")
"True"
>>> qualitative_label("L3R")
"True"
>>> qualitative_label("E12C")
"True"
>>> qualitative_label("R8Q")
"True"
>>> qualitative_label("E4C")
"True"
>>> qualitative_label("K19M")
"True"
>>> qualitative_label("I24R")
"True"
>>> qualitative_label("Q6L")
"True"
>>> qualitative_label("Q20M")
"False"
>>> qualitative_label("E12A")
"True"
>>> qualitative_label("R8D")
"True"
>>> qualitative_label("K14G")
"True"
>>> qualitative_label("E13K")
"True"
>>> qualitative_label("E23G")
"True"
>>> qualitative_label("R16G")
"True"
>>> qualitative_label("K19P")
"True"
>>> qualitative_label("K19G")
"True"
>>> qualitative_label("I24L")
"True"
>>> qualitative_label("E7H")
"True"
>>> qualitative_label("Q20V")
"False"
>>> qualitative_label("E13C")
"False"
>>> qualitative_label("K18C")
"True"
>>> qualitative_label("K18Y")
"False"
>>> qualitative_label("K18I")
"True"
>>> qualitative_label("Q6G")
"True"
>>> qualitative_label("R8A")
"True"
>>> qualitative_label("R17T")
"True"
>>> qualitative_label("K19H")
"True"
>>> qualitative_label("Q1C")
"False"
>>> qualitative_label("E13D")
"True"
>>> qualitative_label("R9N")
"True"
>>> qualitative_label("R11W")
"True"
>>> qualitative_label("R11Y")
"True"
